System: EKVX NSCLC
assay.text: NCI-60 one-dose screen, 48 h (100 = growth as untreated, 0 = no growth, -100 = all killed)
settings: 10 µM unless noted
Compounds without any hit were thinned out: in the full panel of roughly 83,000, 20% have a hit.
// class assignment uses growth with these ranges: low group = under 30%, middle group = from 30% up to 80%, high group = 80% and over

                           structure_smiles           cat
0         COc1c2ccccc2c(OC)c2[nH]c(=O)ccc12     low group
1  Cc1ccc2c(c1)O/C(=C\c1cccc(OCC(=O)c3ccccc3)c1)C2=O    high group
2  O=C1C=CC(=O)N1c1ccc(Cc2ccc(N3C(=O)C=CC3=O)cc2)cc1    high group
3  COc1ccc2c(c1)C(=O)/C(=C/c1cccc(OCC(=O)Nc3nc4c(s3)CCCC4)c1)O2     low group
4  COc1cnc2c(c1)C(=O)c1c-2n(CCCBr)c(=O)c2cc([N+](=O)[O-])ccc12  middle group
5  CC(C)c1c(C(=O)Nc2ccccc2)c(-c2ccccc2)c(-c2ccc(F)cc2)n1CC[C@@H]1CC=CC(=O)O1  middle group
6  COC(=O)[C@@H]1CC[C@]2(C)[C@H](CC[C@@H]3O[C@@]32C)[C@@]1(C)CC(=O)c1ccoc1    high group
7         CCN(CC)CC(C)(C)C(=O)/C=C/c1ccccc1     low group
8  CC/C=C\C[C@H](F)C/C=C1/C(=O)C=C[C@@H]1C/C=C\CCCC(=O)O  middle group
9             Oc1ccccc1N=Cc1c(O)ccc2ccccc12  middle group

###

System: MCF7 breast
assay.text: NCI-60 one-dose screen, 48 h
settings: 10 µM unless noted
This is part of a sample that, as a whole, favours compounds with a hit. Of some 83,000 tested, about 20% had one in any assay. The source made the active and inactive calls. The calls were made as follows: active = growth percent below 10; inactive = the rest.
Labels: YES = active, NO = inactive

compound	cat
CC1=C(C)C(=O)OC([C@](C)(O)[C@]2(O)CC[C@@]3(O)[C@@H]4C[C@H]5O[C@]56CC=CC(=O)[C@]6(C)[C@H]4CC[C@]23COC(=O)c2ccc(C)o2)C1 (stereo not given in full)	YES
CC(C)n1cc2c(N)ncnc2n1	NO
COc1c(Cl)cc(Cl)cc1Cl	NO
CN1CCN(Cc2ccc(NC(=O)c3[nH]ncc3Nc3ccnc4ccsc34)cc2)CC1	NO
CCOC(=O)c1cnc2ccc(Br)cc2c1Nc1cccc(S(=O)(=O)NC)c1	NO

###

System: SNB-19 CNS
assay.text: NCI-60 one-dose screen, 48 h (100 = growth as untreated, 0 = no growth, -100 = all killed)
settings: 10 µM unless noted
Compounds without any hit were thinned out: in the full panel of roughly 83,000, 20% have a hit.
experimental.endpoint: growth (%)

In [3]: df
Out[3]:
                                   compound  study_system  measurement_units  quantitative_result
0  CC(=O)C1=C(O)C=C2Oc3c(C(=O)/C=C/c4cc(C(F)(F)F)cc(C(F)(F)F)c4)c(O)c(C)c(O)c3[C@]2(C)C1=O    SNB-19 CNS                  %                -17.5
1  CN[C@@]12CC3(C=CC(=O)C=C3)O[C@]1(Cc1ccc(OC)cc1)N(C)C(=O)N2    SNB-19 CNS                  %                 92.2
2  C=C1CCC2C3(C)COC(c4cccc(Cl)c4)OC3CCC2(C)C1/C=C/C1=CCOC1=O (centres undefined)    SNB-19 CNS                  %                 77.3
3  COc1ccc(S(=O)(=O)NCCCNc2nccc(-c3c(-c4cccc(N)c4)nc4sccn34)n2)cc1    SNB-19 CNS                  %                  110
4  O=c1c2cccc3c(Nc4ccccn4)ccc(c32)c2nc3ccccc3n12    SNB-19 CNS                  %                 89.9
5  O=C1/C(=C/c2ccc(Cl)c(Cl)c2)CN(C(=O)CCN2CCC(=NO)CC2)C/C1=C\c1ccc(Cl)c(Cl)c1    SNB-19 CNS                  %                  -96
6     Oc1cccc(Nc2nccc(-c3ccc4ccccc4c3)n2)c1    SNB-19 CNS                  %                 28.7
7  O=C1Nc2ccc(Br)cc2C12CC(c1ccccc1)=NN2 (centres undefined)    SNB-19 CNS                  %                 69.1
8  CNCCCn1c2c(c3ccc([N+](=O)[O-])cc3c1=O)C(=O)c1cc(OC)cnc1-2    SNB-19 CNS                  %                 2.67
